Value source: paper PMC10397247

# system name: T1, 4H3782-AA
# T1 chain: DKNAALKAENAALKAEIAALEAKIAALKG
# procedure summary: two-hybrid library CCmax;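 further: natural log of median RNA to DNA barcode read ratio; higher means stronger binding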
# applied conditions: mean of both orientations
value type: interaction score
A bare number is all that is needed in reply.

Would you please look over these solved cases?
DKIAALKAEIAALEAKIAALEAKNAALKG [4H2600-AA]    -1.12
DEIAALEAKIAALKAKIAALEAENAALEG [4H355-AA]    0.393
DKNAALEAKIAALEAENAALKAEIAALKG [4H3354-AA]    -1.79
DENAALKAKIAALEAEIAALKAEIAALKG [4H1802-AA]    -1.38
DKNAALEAKIAALEAKIAALEAKIAALEG [4H3365-AA]    -1.46
DKIAALKAKNAALEAENAALEAEIAALEG [4H2961-AA]    -1.44

Kindly review the next binder as well.
In one line, give reported interaction score of the entry DKIAALKAENAALEAEIAALKAENAALEG [4H2699-AA] .
-0.882
